Assay Text: chemical genetic growth profiling, strain panel (AID 1159580);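 also: tested at 20 µM; growth read once vehicle control cultures reached saturation at 30 °C; 1 = growth at the plate median or of vehicle wells; lower values mean less growth of the strain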
Assay Conditions: S. cerevisiae deletion strains, growth OD, locus YDL074C, strain BRE1
About 2,000 (36%) of roughly 5,500 compounds were called active. Roughly 18% stayed inconclusive and do not appear here. Rule as the data show it: active = normalized growth mostly below about 0.91 (no sharp cut-off); inconclusive = no clear call, values can overlap the other calls; inactive = mostly above about 0.92. This is one part of the list.
Your response should consist of one outcome taken from Y = active, N = inactive

Look over these answered cases.
molecule="CC[C@@H]1[C@@H](O)N2C3C[C@H]1C1C(O)[C@]4(C[C@@H]12)c1ccccc1N(C)[C@@H]34 (some centres undefined)" category_label=N
molecule="Cc1cccc(CN2CCN(C(c3ccccc3)c3ccc(Cl)cc3)CC2)c1 (centres undefined)" category_label=Y
molecule=COc1ccc(/C=C/C(=O)O)cc1OC category_label=Y
molecule=O=C(O)CNCP(=O)(O)O category_label=N
molecule="C#C[C@]1(O)CCC2C3CCc4cc(O)ccc4C3CC[C@@]21C (some centres undefined)" category_label=N
molecule=O=C(O)P(=O)(O)O category_label=N

INPUT: I'd appreciate the recorded outcome for CCn1cc(C(=O)O)c(=O)c2cc3c(cc21)OCO3 from this test.
OUTPUT: N

INPUT: How about C=CCc1cc(OC)c2c(c1OC)OCO2 ?
OUTPUT: N

INPUT: How about CN(C)CCCO[C@H]1[C@@H](C(O)CO)OC2OC(C)(C)O[C@@H]21 (some centres undefined) ?
OUTPUT: N

* * *

Provide the recorded normalized growth for the entries that follow.
Assay Text: chemical genetic growth profiling, strain panel (AID 1159580);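 also: tested at 20 µM; growth read once vehicle control cultures reached saturation at 30 °C; 1 = growth at the plate median or of vehicle wells; lower values mean less growth of the strain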
Assay Conditions: S. cerevisiae deletion strains, growth OD, locus YDL134C, strain PPH21, stronger effect = lower value
Screen size: about 5,500 compounds; about 2,000 (36%) were called active. About 18% were inconclusive and are not listed. Some of the results follow.
One number for each entry.

molecule="CCOC(=O)CCCCCCCCCCCCC1C=CCC1 (stereo unspecified)" quantitative_result=0.0502
molecule="O=C(O)CCCCC1SCC2NC(=O)NC21 (stereo unspecified)" quantitative_result=1
molecule=O=C(O)c1cc(C(F)(F)F)ccc1F quantitative_result=0.989

Batch lookup, normalized growth per entry.
1. CCOP(=S)(OCC)SCCSCC
2. NC(=O)c1cc[n+](CC2=C(C(=O)O)N3C(=O)C(NC(=O)C(c4ccccc4)S(=O)(=O)[O-])C3SC2)cc1 (stereo unspecified)
3. COc1ccc(CN(Cc2ccc(OC)cc2)C(=O)c2cccs2)cc1
4. C=CCN1CC[C@]23c4c5ccc(O)c4OC2C(=O)CC[C@@]3(O)[C@H]1C5 (stereo partly specified)

OUTPUT:
[0.983, 0.973, 0.974, 1]

* * *

Provide the recorded normalized growth for the entries that follow.
Assay Text: chemical genetic growth profiling, strain panel (AID 1159580);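 also: tested at 20 µM; growth read once vehicle control cultures reached saturation at 30 °C; 1 = growth at the plate median or of vehicle wells; lower values mean less growth of the strain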
Assay Conditions: S. cerevisiae deletion strains, growth OD, locus YMR263W, strain SAP30, stronger effect = lower value
Screen size: about 5,500 compounds; about 2,000 (36%) were called active. About 18% were inconclusive and are not listed. This is one part of the list.
Numbers only.

Some compounds with recorded normalized growth:
smiles_data=CN[C@H](CC(C)C)C(=O)N[C@H]1C(=O)N[C@@H](CC(N)=O)C(=O)N[C@H]2C(=O)N[C@H]3C(=O)N[C@H](C(=O)N[C@H](C(=O)O)c4cc(O)cc(O)c4-c4cc3ccc4O)[C@H](O)c3ccc(c(Cl)c3)Oc3cc2cc(c3O[C@@H]2O[C@H](CO)[C@@H](O)[C@H](O)[C@H]2O[C@H]2C[C@](C)(N)[C@H](O)[C@H](C)O2)Oc2ccc(cc2Cl)[C@H]1O quantitative_result=0.997
smiles_data=Cc1onc(-c2ccccc2Cl)c1C(=O)Nc1ccc2c(c1)OCO2 quantitative_result=0.919
smiles_data=Cc1ccc(C(C)C)cc2c(C)ccc1-2 quantitative_result=0.993
smiles_data=CCOC(=O)C1=C[C@]2(CC)CCCN3CCc4c(n1c1ccccc41)[C@@H]32 quantitative_result=0.987
smiles_data=Cc1cc(/C=N/NC(N)=S)c2c(C)ccc(C(C)C)cc1-2 quantitative_result=0.986

Batch lookup, normalized growth per entry.
1. COc1cc(N=Cc2ccc3c(c2)OCO3)c(OC)cc1Cl
2. NC(=O)CCSCCC(N)=O
3. CC1(C)CCC(C(C)(C)O)CC1

OUTPUT:
[0.939, 0.991, 1.01]

INPUT: For the compound COC(=O)c1ccc([N+](=O)[O-])cc1Cl , what normalized growth is on record?
OUTPUT: 0.992
